Test system: DU-145 prostate
Experiment: NCI tumour cell line growth inhibition, 48 h
measure.name: log10(TGI) (log10 of the value in µM)
Annotation: log10 of TGI, µM basis.

// worked examples, log10(TGI) included
{"molecule": "CC1=C(N2CC2)C(=O)c2nc3n(c2C1=O)CCC3O (configuration not stated)", "log10(TGI)": -1.14}
{"molecule": "Cc1ccc(N2C(=O)C(Cl)=C(Nc3cccc(O)c3)C2=O)cc1Cl", "log10(TGI)": 1.50}
{"molecule": "COC(=O)c1c(O)ccc2c1c1c(n2C)C(=O)c2ccccc2C1=O", "log10(TGI)": 1.86}

What does the record list as log10(TGI) for Cc1ccc(-c2cc3nc(-c4ccccc4)nc(C(Cl)Cl)n3n2)cc1 ? 0.08

Lookup CC[C@@]1(OC(=O)CCC(=O)O)C(=O)OCc2c1cc1n(c2=O)Cc2cc3ccccc3nc2-1 0.18

Lookup CC/C=C\C[C@H](O)C/C=C1/C(=O)C=C[C@@H]1C/C=C\CCCC(N)=O 1.04

Lookup c1ccc2c(NCCCCCCCCNc3c4ccccc4nc4ccccc34)c3ccccc3nc2c1 0.29

Lookup CCN(CC)CCNc1ccc(N=Nc2ccc(S(N)(=O)=O)cc2)c2ccccc12 1.45
